molecular target: Bcl-xL/Bcl-2-like protein 11 (Homo sapiens, UniProt Q07817); assay: Binding affinity to Bcl-xL/Bim (unknown origin) assessed as inhibition constant by fluorescence polarization assay; format: protein assay
Sequence (Q07817 whole entry): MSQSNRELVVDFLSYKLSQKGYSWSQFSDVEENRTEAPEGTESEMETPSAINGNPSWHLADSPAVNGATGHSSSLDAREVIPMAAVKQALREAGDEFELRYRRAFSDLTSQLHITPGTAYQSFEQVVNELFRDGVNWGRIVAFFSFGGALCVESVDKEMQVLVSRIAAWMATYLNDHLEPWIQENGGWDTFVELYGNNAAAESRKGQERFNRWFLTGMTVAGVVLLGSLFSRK
Sequence (O43521 whole entry, further chain): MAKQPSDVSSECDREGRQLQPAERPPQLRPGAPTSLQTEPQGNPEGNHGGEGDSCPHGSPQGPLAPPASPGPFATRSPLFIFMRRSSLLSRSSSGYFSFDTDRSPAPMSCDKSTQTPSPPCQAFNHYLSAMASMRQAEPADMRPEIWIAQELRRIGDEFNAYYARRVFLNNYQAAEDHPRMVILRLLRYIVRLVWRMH
pKi: −log10 of the molar value.
ENDPOINT LABEL: pKi

| SMILES STRUCTURE | ENDPOINT LABEL | MEASURED |
| --- | --- | --- |
| COC(=O)C1=CN=c2s/c(=C\c3cn(Cc4ccccc4)c4ccccc34)c(=O)n2[C@H]1c1ccc(C(C)=O)cc1 | pKi | 6.55 |
| O=C(Nc1ccccc1)C1=CN=c2s/c(=C\c3cn(Cc4ccccc4)c4ccccc34)c(=O)n2[C@H]1c1ccccc1 | pKi | 5.96 |
| CCOC(=O)C1=CN=c2s/c(=C\c3cn(Cc4ccccc4)c4ccccc34)c(=O)n2[C@H]1c1cccc(C(C)=O)c1 | pKi | 6.47 |
| COC(=O)C1=CN=c2s/c(=C\c3cn(Cc4ccccc4)c4ccccc34)c(=O)n2[C@@H]1c1ccc(C(C)=O)cc1 | pKi | 6.26 |
| CCOC(=O)C1=CN=c2s/c(=C\c3cn(Cc4ccccc4)c4ccccc34)c(=O)n2[C@@H]1c1cccc(C(C)=O)c1 | pKi | 6.54 |
| O=C(Nc1ccccc1)C1=CN=c2s/c(=C\c3cn(Cc4ccccc4)c4ccccc34)c(=O)n2[C@@H]1c1ccccc1 | pKi | 6.08 |

###

molecular target: Induced myeloid leukemia cell differentiation protein Mcl-1/Bcl-2-like protein 11 (Homo sapiens, UniProt Q07820); assay: Inhibition of GST-tagged Mcl-1/Bim (unknown origin) incubated for 15 mins followed by Bim addition measured after 2 hrs by ELISA method; assay type: protein assay
Sequence (Q07820 whole entry, one chain of several): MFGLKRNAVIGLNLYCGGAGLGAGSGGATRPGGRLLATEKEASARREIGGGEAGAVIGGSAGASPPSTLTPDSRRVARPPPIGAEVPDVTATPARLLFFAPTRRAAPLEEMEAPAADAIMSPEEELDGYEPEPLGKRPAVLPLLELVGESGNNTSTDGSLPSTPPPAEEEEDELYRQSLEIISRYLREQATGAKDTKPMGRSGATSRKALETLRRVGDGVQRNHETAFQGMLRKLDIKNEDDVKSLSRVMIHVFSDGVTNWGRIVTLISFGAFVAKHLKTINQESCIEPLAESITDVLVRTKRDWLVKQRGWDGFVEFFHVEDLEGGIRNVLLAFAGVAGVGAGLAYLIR
pIC50: −log10 of the molar value.
Known pIC50 of a selection of compounds

| SMILES STRUCTURE | pIC50 |
| --- | --- |
| COc1ccc(CSc2ccc(C(=O)c3[nH]c(Cl)c(Cl)c3-n3cc(Cl)c(Cl)c3C(=O)c3ccc(SCc4ccc(OC)cc4)cc3O)c(O)c2)cc1 | 6.15 |
| CCOC(=O)CSc1ccc(C(=O)c2[nH]c(Cl)c(Cl)c2-n2cc(Cl)c(Cl)c2C(=O)c2ccc(SCC(=O)OCC)cc2O)c(O)c1 | 5.74 |
| O=C(c1ccc(SCc2ccccc2)cc1O)c1[nH]c(Cl)c(Cl)c1-n1cc(Cl)c(Cl)c1C(=O)c1ccc(SCc2ccccc2)cc1O | 6.15 |

###

Known pIC50 of a selection of compounds
Target: BCL2A1/BAK1 (Homo sapiens, UniProt Q16548+Q16611)
Sequence (Q16611 whole entry): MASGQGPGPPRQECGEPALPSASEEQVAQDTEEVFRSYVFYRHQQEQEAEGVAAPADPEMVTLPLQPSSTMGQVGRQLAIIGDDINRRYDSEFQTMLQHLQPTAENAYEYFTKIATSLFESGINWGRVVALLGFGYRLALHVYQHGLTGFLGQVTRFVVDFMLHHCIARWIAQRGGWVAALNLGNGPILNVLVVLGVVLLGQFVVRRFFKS
Sequence (Q16548 whole entry): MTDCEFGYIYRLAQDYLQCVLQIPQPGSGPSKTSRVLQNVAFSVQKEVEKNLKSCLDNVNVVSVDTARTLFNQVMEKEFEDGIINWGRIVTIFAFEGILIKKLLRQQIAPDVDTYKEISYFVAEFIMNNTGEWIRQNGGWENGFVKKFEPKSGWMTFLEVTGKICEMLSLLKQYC
Experiment: Inhibition of Bfl-1/Bak (unknown origin)
pIC50: −log10 of the molar value.

| COMPOUND | pIC50 |
| --- | --- |
| CC1=C(C2=C(C)C(=O)c3c(cc(O)c(O)c3Cc3ccccc3)C2=O)C(=O)c2cc(O)c(O)c(Cc3ccccc3)c2C1=O | 4.60 |
| Cc1cc2c(C(=O)NC(C)c3ccc(Cl)cc3)c(O)c(O)cc2c(O)c1-c1c(C)cc2c(C(=O)NC(C)c3ccc(Cl)cc3)c(O)c(O)cc2c1O (stereo not drawn) | 6.40 |
| Cc1cc2c(O)c(-c3ccc4c(C(=O)NCC(C)c5ccccc5)c(O)c(O)cc4c3O)c(C)cc2c(C(=O)NCC(C)c2ccccc2)c1C (stereo not drawn) | 6.70 |

###

molecular target: MCL1-BAK1 complex (Homo sapiens); assay: Inhibition of Mcl-1/Bak (unknown origin); type: protein-complex assay
Sequence (Q07820 whole entry, one chain of several): as the sequence (Q07820 whole entry, one chain of several) above

| MOLECULE | IC50, nM |
| --- | --- |
| Cc1cc2c(O)c(-c3ccc4c(C(=O)NCC(C)c5ccccc5)c(O)c(O)cc4c3O)c(C)cc2c(C(=O)NCC(C)c2ccccc2)c1C (stereo unspecified) | 620 |

###

assay: Binding affinity to Bcl-xL/Bad (unknown origin) assessed as inhibition constant by fluorescence polarisation assay; design: species or system Homo sapiens
pKi: −log10 of the molar value.
ENDPOINT LABEL: pKi

| MOLECULE | MEASURED |
| --- | --- |
| O=C(O[C@@H]1Cc2c(O)cc(O)cc2O[C@@H]1c1cc(O)c(O)c(O)c1)c1cc(O)c(O)c(O)c1 [EPIGALOCATECHIN GALLATE] | 6.47 |

###

biological target: Bcl-xL/BAK (Homo sapiens, UniProt Q07817); assay: Binding affinity to Bcl-xL/Bak (unknown origin) assessed as inhibition constant by fluorescence polarization assay; assay type: protein assay
pKi: −log10 of the molar value.

| SMILES STRUCTURE | pKi |
| --- | --- |
| COc1ccc(-c2ccc(/C=C3\SC(=S)N([C@@H](Cc4ccccc4)C(=O)O)C3=O)cn2)cc1OC | < 4.00 |

###

molecular target: Apoptosis regulator Bcl-2/Bcl-2 homologous antagonist/killer (Homo sapiens, UniProt P10415+Q16611); experiment: Inhibition of Bcl-2/Bak (unknown origin)
Sequence (P10415 whole entry, one chain of several): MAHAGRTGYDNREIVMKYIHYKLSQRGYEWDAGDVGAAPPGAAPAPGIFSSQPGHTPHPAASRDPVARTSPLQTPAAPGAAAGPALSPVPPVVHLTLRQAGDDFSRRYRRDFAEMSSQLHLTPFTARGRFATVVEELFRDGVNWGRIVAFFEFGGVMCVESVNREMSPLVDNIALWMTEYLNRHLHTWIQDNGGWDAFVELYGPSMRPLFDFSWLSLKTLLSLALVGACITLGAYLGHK
pIC50: −log10 of the molar value.
ENDPOINT LABEL: pIC50

| MOLECULE | ENDPOINT LABEL | MEASURED |
| --- | --- | --- |
| Cc1cc2c(C(=O)NC(C)c3ccc(Cl)cc3)c(O)c(O)cc2c(O)c1-c1c(C)cc2c(C(=O)NC(C)c3ccc(Cl)cc3)c(O)c(O)cc2c1O (stereo not drawn) | pIC50 | 6.31 |
| Cc1cc2c(O)c(-c3ccc4c(C(=O)NCC(C)c5ccccc5)c(O)c(O)cc4c3O)c(C)cc2c(C(=O)NCC(C)c2ccccc2)c1C (stereo not drawn) | pIC50 | 6.49 |
| CC1=C(C2=C(C)C(=O)c3c(cc(O)c(O)c3Cc3ccccc3)C2=O)C(=O)c2cc(O)c(O)c(Cc3ccccc3)c2C1=O | pIC50 | 4.51 |

###

molecular target: Induced myeloid leukemia cell differentiation protein Mcl-1/BH3-interacting domain death agonist (Homo sapiens); test: Binding affinity to Mcl-1/Bid (unknown origin) assessed as inhibition constant by fluorescence polarization assay; type: protein assay
Sequence (Q07820 whole entry, the tested form may be a part): as the sequence (Q07820 whole entry, one chain of several) above
Sequence (P55957 whole entry, further chain, the tested form may be a part): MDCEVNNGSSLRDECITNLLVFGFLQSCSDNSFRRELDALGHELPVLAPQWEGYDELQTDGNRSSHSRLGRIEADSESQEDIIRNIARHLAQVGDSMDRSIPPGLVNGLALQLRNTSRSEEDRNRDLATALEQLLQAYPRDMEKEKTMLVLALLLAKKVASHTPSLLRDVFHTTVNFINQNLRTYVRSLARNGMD
pKi: −log10 of the molar value.
Known pKi of a selection of compounds

| SMILES STRUCTURE | pKi |
| --- | --- |
| O=C(Nc1ccccc1)C1=CN=c2s/c(=C\c3cn(Cc4ccccc4)c4ccccc34)c(=O)n2[C@@H]1c1ccccc1 | 6.44 |
| O=C(Nc1ccccc1)C1=CN=c2s/c(=C\c3cn(Cc4ccccc4)c4ccccc34)c(=O)n2[C@H]1c1ccccc1 | 5.66 |
| N#CC1=C(C#N)c2ccc(N3CCSCC3)c3cccc(c23)C1=O | 7.24 |
| COC(=O)C1=CN=c2s/c(=C\c3cn(Cc4ccccc4)c4ccccc34)c(=O)n2[C@H]1c1ccc(C(C)=O)cc1 | 6.49 |
| O=C(O)CSc1cc(NS(=O)(=O)c2cccc(Br)c2)c2ccccc2c1O | 6.31 |
| COC(=O)C1=CN=c2s/c(=C\c3cn(Cc4ccccc4)c4ccccc34)c(=O)n2[C@@H]1c1ccc(C(C)=O)cc1 | 6.38 |
| CCOC(=O)C1=CN=c2s/c(=C\c3cn(Cc4ccccc4)c4ccccc34)c(=O)n2[C@H]1c1cccc(C(C)=O)c1 | 6.13 |
| CCOC(=O)C1=CN=c2s/c(=C\c3cn(Cc4ccccc4)c4ccccc34)c(=O)n2[C@@H]1c1cccc(C(C)=O)c1 | 6.54 |
| CC1=C[C@@H](/C=C(\C)c2ccc(C(=O)O)cc2)[C@]2(C(=O)O)C=C[C@@H](CCOC(=O)c3ccc(Oc4cccnc4)cc3)C[C@@H]2C1 | 6.97 |

###

target: BCL2/BID (Homo sapiens); experiment: Binding affinity to human Bcl-2 (29 to 44 residues)/5-FAM-tagged Bid (unknown origin) assessed as inhibition constant by fluorescence polarization assay; type: protein assay
Sequence (P10415 whole entry, the tested form may be a part): as the sequence (P10415 whole entry, one chain of several) above
Sequence (P55957 whole entry, further chain, the tested form may be a part): as the sequence (P55957 whole entry, further chain, the tested form may be a part) above

| MOLECULE | Ki |
| --- | --- |
| O=C(Nc1ccccc1)C1=CN=c2s/c(=C\c3cn(Cc4ccccc4F)c4ccccc34)c(=O)n2C1c1ccc(F)cc1 (stereo unspecified) | 2670 nM |

###

target: Induced myeloid leukemia cell differentiation protein Mcl-1/BH3-interacting domain death agonist (Homo sapiens); assay: Binding affinity to Mcl-1/Bid (unknown origin) incubated for 3 hrs by fluorescence polarization-based binding assay; format: protein assay

| SMILES STRUCTURE | Ki (µM) |
| --- | --- |
| O=C(CSc1nnc(-c2ccco2)c(-c2ccco2)n1)Nc1ccccc1 | 3.2 |
